Catalogue of pIC50 values
# assayed.system: Sorbitol dehydrogenase (Homo sapiens)
# Sequence (Q00796 whole entry): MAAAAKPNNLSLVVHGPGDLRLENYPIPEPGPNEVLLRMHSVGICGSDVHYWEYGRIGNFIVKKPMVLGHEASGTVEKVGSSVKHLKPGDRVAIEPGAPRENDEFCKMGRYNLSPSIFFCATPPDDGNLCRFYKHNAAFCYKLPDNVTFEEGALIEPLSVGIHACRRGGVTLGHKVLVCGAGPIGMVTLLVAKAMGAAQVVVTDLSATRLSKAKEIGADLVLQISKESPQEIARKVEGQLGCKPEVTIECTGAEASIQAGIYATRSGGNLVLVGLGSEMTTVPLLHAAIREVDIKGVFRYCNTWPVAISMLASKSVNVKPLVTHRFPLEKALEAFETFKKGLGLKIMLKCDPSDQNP
# run.description: In vitro inhibition against human recombinant sorbitol dehydrogenase
pIC50 is a log-scale quantity: -log10 of the concentration expressed in molar.

Check out these entries, answers already filled in.
Looking up C[C@@H]1CN(c2ccnc([C@@H](C)O)n2)C[C@H](C)N1c1ccnc([C@@H](C)O)n1 , I found its pIC50 recorded as 8.00

Briefly, pIC50 measured for CC(=O)c1nccc(N2C[C@@H](C)N(c3ccnc([C@@H](C)O)n3)[C@@H](C)C2)n1 : 7.72

// CC(=O)c1nccc(N2C[C@@H](C)N(c3ccnc(C(C)=O)n3)[C@@H](C)C2)n1 : pIC50 value = 6.67

According to the records, this compound CC(=O)c1nccc(N2[C@H](C)CN(c3ccnc([C@@H](C)O)n3)C[C@@H]2C)n1 displays pIC50 of 8.22

Switching to the query record.
Looking up C[C@H](O)c1nccc(N2C[C@@H](C)N(c3ccnc([C@@H](C)O)n3)[C@@H](C)C2)n1 , I see its pIC50 listed as 7.48
